Ref: a melting point compilation (Tetko et al.; mined from patent text by program, amines drawn as free bases though some values may be those of a salt)

Outcome measure: melting point

Input line: Given the entry Cc1nnc2ccc(-c3cccc(NC(=O)C(C)(C)C)c3)nn12 , report its measured melting point.
Output line: 256 to 258 °C

Input line: Note, next up: COOc1ccc(S(=O)(=O)c2cnc(C)nc2Cc2c(C)cc(C)cc2C)cc1
Output line: 150 to 152 °C

Input line: Note, next up: CCCNC(=O)C1CCCN1C(=O)OCc1ccccc1 (stereo not given)
Output line: 74 to 75 °C

Input line: Note, next up: O=C1Nc2ccccc2C1(c1ccc(O)cc1)c1ccc(O)cc1
Output line: 267 °C

Input line: Note, next up: O=C1NC2CCC(=O)N2[C@H]1CO (stereo not given in full)
Output line: 61 to 75 °C

---
Input line: Given the entry Cc1c(NC(=O)C(CS)CC(C)C)cccc1C(=O)O (stereo not given) , report its measured melting point.
Output line: 166 to 168 °C

Input line: Note, next up: N#Cc1c(-c2ccccc2)c(-c2ccccc2)nn(CC(=O)NN)c1=O
Output line: 191 to 192 °C

Input line: Note, next up: Cn1ccnc1-c1ccccc1Nc1nc(Nc2ccc3c(c2)C(C)(C)CCC(=O)N3)ncc1Cl
Output line: 227 °C

Input line: Note, next up: O=C(Nc1ccc(CN2C(=O)[C@H]3CCC[C@H]3N(C(=O)CN3C(=O)c4ccccc4C3=O)c3ccccc32)cc1)c1ccc(Cl)cc1 (relative stereo)
Output line: 191 to 194 °C

Input line: Note, next up: COc1ccc(-c2nc(N3CCOCC3)c3sc(CN(C)c4ncc(C(=O)NO)cn4)cc3n2)cn1
Output line: 177 to 180 °C

###

Outcome measure: melting point

// below: answered compounds
Input line: Given the entry C/C(=C(\C#N)C(=S)/N=C/N(C)C)N1CCCN(c2ccc(C#N)cc2)CC1 , report its measured melting point.
Output line: 120 to 126 °C

Input line: Note, next up: CC(C)c1ccc2c(c1)c(S(=O)(=O)c1ccccc1)c(CC(C)(C)C(=O)O)n2Cc1ccc(Cl)cc1
Output line: 169 to 172 °C

Input line: Note, next up: Cn1nc(C(F)(F)C(F)(F)F)c(C(F)(F)F)c1-n1cc(-c2ccc(Cl)c(C(=O)NC3CC3)c2)nn1
Output line: 150 to 152 °C

Input line: Note, next up: COc1cccc(Cn2c(-c3cc(OC)c(OC)c(OC)c3)nc3ccccc32)c1
Output line: 127 °C

Input line: Note, next up: CCCCCCCCCCCCCCCCOCCSCCOC(=O)N(Cc1ccccn1)C(C)=O
Output line: 41 to 44 °C

Now for another entry.
Input line: Given the entry Cc1cc(Oc2ncc(C(F)(F)F)cc2Cl)nn1C(=O)Nc1cccc(C(F)(F)F)c1 , report its measured melting point.
Output line: 123 to 124 °C

###

Each record here notes measured melting point.

Input line: Given the entry Nc1ccc(C(=O)NCC(=O)O)c(F)c1 , report its measured melting point.
Output line: 190 to 194 °C

Input line: Note, next up: O=C(Nc1ccc(OCCN2CCOCC2)c2ccccc12)c1cc(F)cc(OC2CCCCC2)c1
Output line: 116 to 118 °C

###

Each record here notes measured melting point.

// below: answered compounds
Input line: Given the entry Cc1oc(-c2ccccc2)nc1CCc1ccc(CO)cc1 , report its measured melting point.
Output line: 103 to 104 °C

Input line: Note, next up: O=C(O)c1cccc(S(=O)(=O)Cc2c(O[C@H](Cn3ccnc3)c3ccccc3)ccc3c2CCCC3=O)c1
Output line: 236 to 238 °C

Input line: Note, next up: COc1ccc2[nH]c(C(=O)N3CCC[C@H](C)C3)cc2c1
Output line: 189 to 192 °C

Input line: Note, next up: CN1c2ccc(-c3cccc4ccccc34)cc2S(=O)c2cc(-c3cccc4ccccc34)ccc21
Output line: 221 to 225 °C

Input line: Note, next up: CNc1nc(Nc2ccc(Cl)cc2F)ncc1N1CCNC1=O
Output line: 249 °C

---
Input line: Given the entry SC1CCn2c(CCc3ccccc3)nc3cccc1c32 (stereo not given) , report its measured melting point.
Output line: 75.7 to 78.8 °C

Input line: Note, next up: COC(=O)c1sccc1Nc1ccc(F)cc1[N+](=O)[O-]
Output line: 172 to 175 °C

Input line: Note, next up: NC(=O)N(O)CCOc1ccc2c(c1)CCN(CCCc1ccccc1)S2(=O)=O
Output line: 134 to 135 °C

Input line: Note, next up: CN(C)C(N)=Nc1cc(Cl)ccc1N1CCOCC1
Output line: 135 to 138 °C

Input line: Note, next up: CCC(O)(Cn1cncn1)c1ccc(Oc2ccc(Cl)cc2)cc1Cl (stereo not given)
Output line: 140 to 142 °C

###

Outcome measure: melting point

// below: answered compounds
Input line: Given the entry CCS(=O)(=O)c1ccc(C(=O)NCc2ccc3c(c2)C(=O)N(C2(C)CCC(=O)NC2=O)C3=O)nc1 (stereo not given) , report its measured melting point.
Output line: 145 to 147 °C

Input line: Note, next up: CC(C)(C)c1cc(Cn2nc(-c3ccccc3)oc2=S)cc(C(C)(C)C)c1O
Output line: 166 °C

Input line: Note, next up: c1c2c(nc3c1CCCCC3)CCCCC2
Output line: 179 °C

---
Input line: Given the entry COc1cc(CC(=O)O)cc(OCCCc2cn(-c3ccc(C(F)(F)F)cn3)nc2C(C)C)c1 , report its measured melting point.
Output line: 109 to 110 °C

###

Outcome measure: melting point (°C)
The figure you give is taken to be in °C; do not add the unit.

Input line: Given the entry C=CC(=O)[C@H](Cc1cc(F)cc(F)c1)NC(=O)OC(C)(C)C , report its measured melting point.
Output line: 115

Input line: Note, next up: CCOc1ccccc1C=[N+]([O-])C(C)(C)C
Output line: 58.3

Input line: Note, next up: CC(=O)Nc1ccc(Oc2c([N+](=O)[O-])cc(C(=O)O)cc2S(N)(=O)=O)cc1
Output line: 305

Now for another entry.
Input line: Given the entry Clc1ccc(-c2noc3ccc(CBr)cc23)cc1 , report its measured melting point.
Output line: 142

###

Outcome measure: melting point

// below: answered compounds
Input line: Given the entry CC(C)(C)c1csc(NC(=O)c2ccn3c(=O)c(/C=C/C(=O)O)c(N4CCCC(CC(=O)NCCO)C4)nc3c2)n1 (centres undefined) , report its measured melting point.
Output line: 167 to 175 °C

Input line: Note, next up: O=C1O[C@H]2C[C@@H]1CC[C@@H]2I
Output line: 130 to 131 °C

Input line: Note, next up: C=CCNC(=O)CCNc1nc(NCC=C)nc2c(C)csc12
Output line: 95 to 96 °C

Input line: Note, next up: NS(=O)(=O)c1cccc(Cl)c1C=C1CCOC1=O
Output line: 172 to 174 °C

Input line: Note, next up: Cc1ccc(N=C2SCS2)cc1
Output line: 54.5 to 55 °C

Input line: Note, next up: CCCCC1(CCCC)CCc2ccc(OCc3ccc4ccccc4n3)cc2C1=O
Output line: 88 to 89 °C

---
Input line: Given the entry CC1(C)COc2ccc(OC(F)(F)F)cc2C(O)(c2ccccn2)C1 (centres undefined) , report its measured melting point.
Output line: 76 °C

Input line: Note, next up: Cc1ccc(C(=O)OCCN(C)C)cc1-n1c(C)cc(OCc2ccccc2CNC(=O)Nc2cc(C(C)(C)C)nn2-c2cccc(OCCO)c2)c(Cl)c1=O
Output line: 164 to 165 °C

Input line: Note, next up: CCN(CC)CC1CN(c2c(F)cc3c(=O)c(C(=O)O)cn(C4CC4)c3c2F)CCO1 (centres undefined)
Output line: 155 to 157 °C

###

Outcome measure: melting point

// below: answered molecules
Input line: Given the entry O=Cc1cc2sccc2c2ccccc12 , report its measured melting point.
Output line: 101 to 102 °C

Input line: Note, next up: COc1c(OCC(F)(F)F)ccnc1CSc1nc2ccc(C(F)(F)F)cc2[nH]1
Output line: 80 to 82 °C

Input line: Note, next up: CCc1c(CNc2cccc(N)n2)c(CC)c(CNc2cccc(N)n2)c(CC)c1CNc1cccc(N)n1
Output line: 164 to 165 °C

Input line: Note, next up: COC(=O)CCc1cc(S(C)(=O)=O)cc(-c2nc(=O)c3ccc(Cl)cc3s2)n1
Output line: 203 to 204 °C

---
Input line: Given the entry CCOC(=O)/C(CCO[N+](=O)[O-])=C(\c1ccc(Cl)cc1)c1ccc(S(C)(=O)=O)cc1 , report its measured melting point.
Output line: 127 to 128 °C

Input line: Note, next up: O=c1[nH]c2cc(Cl)ccc2n1C1CCN(CCCn2c(=S)[nH]c3ccccc32)CC1
Output line: 267 °C

###

Each record here notes measured melting point.

Input line: Given the entry c1ccc(-c2cnc(N3CCc4c([nH]c5ccccc45)C3C3Cc4ccccc4O3)nc2)nc1 (stereo not given) , report its measured melting point.
Output line: 170 to 171 °C

Input line: Note, next up: O[C@@H]1c2ccccc2CN2CCC[C@@H]12 (relative stereo)
Output line: 131 to 133 °C

Input line: Note, next up: CCOP(=O)(/C=C/c1cn(-c2ccccc2)nc1OCc1ccc(OCc2nc(-c3cccnc3)oc2C)c(OC)c1)OCC
Output line: 128 to 129 °C

Input line: Note, next up: CCc1cccc(CC)c1-n1cncc1C(N)=O
Output line: 171 to 172 °C
